Biological target: T1, human IgG3 (human, UniProt P01860-1 1-377)
T1 construct: bought preparation coated on the ELISA plate; not shown: bought immunoglobulin, light chain not described
T1 sequence (P01860 other isoform, or with tags, fused parts or gaps): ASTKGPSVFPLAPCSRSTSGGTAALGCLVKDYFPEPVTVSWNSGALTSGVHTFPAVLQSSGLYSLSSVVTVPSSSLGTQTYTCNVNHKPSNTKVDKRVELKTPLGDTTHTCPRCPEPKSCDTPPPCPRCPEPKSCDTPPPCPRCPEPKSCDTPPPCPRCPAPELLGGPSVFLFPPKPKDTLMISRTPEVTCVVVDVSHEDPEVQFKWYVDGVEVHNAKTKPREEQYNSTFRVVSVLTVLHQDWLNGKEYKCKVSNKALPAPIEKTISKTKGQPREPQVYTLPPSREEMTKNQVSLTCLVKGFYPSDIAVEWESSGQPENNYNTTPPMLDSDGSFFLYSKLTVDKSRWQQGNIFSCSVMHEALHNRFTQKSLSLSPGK
Assay: ELISA, immunoglobulin coated at 4 µg/mL, anti-human IgG2 detection
Endpoint: A290 nm (absorbance)
Return type: number; implicit unit absorbance.

Quick one: A290 nm of 5.396.1 Hc-S103N Lc-K61R (antibody, human IgG2, kappa, V domains shown, human IgG2 kappa; the entries already hold the substitutions S103N (Hc) and K61R (Lc); also called 5.396.1 (S103N/K61R); 5.396.1 N/R) VH: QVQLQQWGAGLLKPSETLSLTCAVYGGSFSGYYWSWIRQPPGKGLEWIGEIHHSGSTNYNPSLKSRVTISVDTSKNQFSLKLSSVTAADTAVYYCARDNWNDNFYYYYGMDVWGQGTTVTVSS VL: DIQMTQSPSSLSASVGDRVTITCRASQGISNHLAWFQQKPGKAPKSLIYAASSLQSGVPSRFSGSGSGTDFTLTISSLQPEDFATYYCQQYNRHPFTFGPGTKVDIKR ? 0.05

The measured values listed here are drawn from patent US20110064726A1.
